Below, each entry is listed with its recorded viability, T/C.
test system: 556581-035-R-J1-PDC complex spheroid growth; assay: Anticancer human tumor 556581-035-R-J1-PDC patient-derived ovarian carcinoma cell line growth inhibition [AhR]; conditions: second compound 0.1 µM; first compound 3.16 µM; stronger effect = lower value
property_name: viability, T/C (%)

compound	property_name	result_value
COc1cccc2c1C(=O)c1c(O)c3c(c(O)c1C2=O)CC(O)(C(=O)CO)CC3OC1CC(N)C(O)C(C)O1 (stereo not drawn) + CC(CO)NC(=O)c1cc(-c2ccc(Cl)cc2)nn(-c2cnn(C)c2)c1=O	viability, T/C	3.94
O=C(c1cc(Cc2n[nH]c(=O)c3ccccc23)ccc1F)N1CCN(C(=O)C2CC2)CC1 + CC(CO)NC(=O)c1cc(-c2ccc(Cl)cc2)nn(-c2cnn(C)c2)c1=O	viability, T/C	83.7
O=C(C=Cc1cccc(S(=O)(=O)Nc2ccccc2)c1)NO + CC(CO)NC(=O)c1cc(-c2ccc(Cl)cc2)nn(-c2cnn(C)c2)c1=O	viability, T/C	27.9

====

Tested on: 556581-035-R-J1-PDC complex spheroid growth
Assay: Anticancer human tumor 556581-035-R-J1-PDC cell line growth inhibition [AhR]; active = viability on the fitted dose curve at most 10% of control; inactive = the rest;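 also: compound exposure lasted 7 days; 100% = DMSO vehicle control growth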
Settings: second compound 1 µM; first compound 0.3 µM
From the text: Multicellular complex tumor spheroid response to aryl hydrocarbon receptor antagonists in combination with a variety of drugs and investigational agents in selected tumor cell lines […] Compounds. […] If the clinical Cmax for an agent had not been determined, the highest concentration tested was 10 microM (Table 1). […]
Outcome codes: active, inactive

molecule	qualitative_label
CCc1c2c(nc3ccc(O)cc13)-c1cc3c(c(=O)n1C2)COC(=O)[C@]3(O)CC + CC(CO)NC(=O)c1cc(-c2ccc(Cl)cc2)nn(-c2cnn(C)c2)c1=O	inactive
Nc1ncn(C2CC(O)C(CO)S2)c(=O)n1 (stereo not given) + Cc1cncc(-c2nc(NCCc3c[nH]c4ccccc34)c3ncn(C(C)C)c3n2)c1	inactive
Nc1ncn(C2CC(O)C(CO)S2)c(=O)n1 (stereo not given) + Cc1ccccc1N=Nc1ccc(NC(=O)c2ccnn2C)c(C)c1	inactive
Nc1ncn(C2CC(O)C(CO)S2)c(=O)n1 (stereo not given) + CC(CO)NC(=O)c1cc(-c2ccc(Cl)cc2)nn(-c2cnn(C)c2)c1=O	inactive
CCc1c2c(nc3ccc(O)cc13)-c1cc3c(c(=O)n1C2)COC(=O)[C@]3(O)CC + Cc1cncc(-c2nc(NCCc3c[nH]c4ccccc34)c3ncn(C(C)C)c3n2)c1	inactive
O=C(C=Cn1cnc(-c2cc(C(F)(F)F)cc(C(F)(F)F)c2)n1)NNc1cnccn1 + CC(CO)NC(=O)c1cc(-c2ccc(Cl)cc2)nn(-c2cnn(C)c2)c1=O	inactive
O=C(C=Cn1cnc(-c2cc(C(F)(F)F)cc(C(F)(F)F)c2)n1)NNc1cnccn1 + Cc1ccccc1N=Nc1ccc(NC(=O)c2ccnn2C)c(C)c1	inactive
CCN(c1cc(-c2ccc(CN3CCOCC3)cc2)cc(C(=O)NCc2c(C)cc(C)[nH]c2=O)c1C)C1CCOCC1 + Cc1ccccc1N=Nc1ccc(NC(=O)c2ccnn2C)c(C)c1	inactive
CCN(c1cc(-c2ccc(CN3CCOCC3)cc2)cc(C(=O)NCc2c(C)cc(C)[nH]c2=O)c1C)C1CCOCC1 + Cc1cncc(-c2nc(NCCc3c[nH]c4ccccc34)c3ncn(C(C)C)c3n2)c1	inactive
CCc1c2c(nc3ccc(O)cc13)-c1cc3c(c(=O)n1C2)COC(=O)[C@]3(O)CC + Cc1ccccc1N=Nc1ccc(NC(=O)c2ccnn2C)c(C)c1	inactive
CC(C)CC(NC(=O)C(Cc1ccccc1)NC(=O)c1cnccn1)B(O)O (stereo not given) + CC(CO)NC(=O)c1cc(-c2ccc(Cl)cc2)nn(-c2cnn(C)c2)c1=O	active
CC(C)CC(NC(=O)C(Cc1ccccc1)NC(=O)c1cnccn1)B(O)O (stereo not given) + Cc1ccccc1N=Nc1ccc(NC(=O)c2ccnn2C)c(C)c1	active
CCN(c1cc(-c2ccc(CN3CCOCC3)cc2)cc(C(=O)NCc2c(C)cc(C)[nH]c2=O)c1C)C1CCOCC1 + CC(CO)NC(=O)c1cc(-c2ccc(Cl)cc2)nn(-c2cnn(C)c2)c1=O	inactive
CC(C)CC(NC(=O)C(Cc1ccccc1)NC(=O)c1cnccn1)B(O)O (stereo not given) + Cc1cncc(-c2nc(NCCc3c[nH]c4ccccc34)c3ncn(C(C)C)c3n2)c1	active
O=C(C=Cn1cnc(-c2cc(C(F)(F)F)cc(C(F)(F)F)c2)n1)NNc1cnccn1 + Cc1cncc(-c2nc(NCCc3c[nH]c4ccccc34)c3ncn(C(C)C)c3n2)c1	inactive

Just for reference, PubChem BioAssay AID1918999 is where these values come from.
